Examples of molecules with documented Activity follow.
- Tested on: Mutarda arvensis
- assay-info: Herbicidal activity against Sinapis arvensis after 3 weeks by post-emergence greenhouse test
- Assay type: functional
- Set-up: concentration or dose not given beside the values

>  <molecule>
CCS(=O)(=O)c1nc2ccccn2c1S(=O)(=O)NC(=O)Nc1nc(OC)cc(OC)n1 [SULFOSULFURON]

>  <Activity / %>
88

$$$$
>  <molecule>
COc1cc(OC)nc(NC(=O)NS(=O)(=O)c2c(SC(C)C)nc3ccccn23)n1

>  <Activity / %>
51

$$$$
>  <molecule>
COc1cc(OC)nc(NC(=O)NS(=O)(=O)c2c([S+](C)[O-])nc3ccccn23)n1 (centres undefined)

>  <Activity / %>
76

$$$$
>  <molecule>
COc1cc(OC)nc(NC(=O)NS(=O)(=O)c2c(S(=O)(=O)C(C)C)nc3ccccn23)n1

>  <Activity / %>
51

$$$$
>  <molecule>
COc1cc(OC)nc(NC(=O)NS(=O)(=O)c2c(S(C)(=O)=O)nc3ccccn23)n1

>  <Activity / %>
88

$$$$
>  <molecule>
COc1cc(OC)nc(NC(=O)NS(=O)(=O)c2c([S+]([O-])c3ccccc3)nc3ccccn23)n1 (centres undefined)

>  <Activity / %>
51

$$$$
>  <molecule>
CCS(=O)(=O)c1nc2ccccn2c1S(=O)(=O)NC(=O)Nc1nc(Cl)cc(OC)n1

>  <Activity / %>
100

$$$$
>  <molecule>
COc1cc(OC)nc(NC(=O)NS(=O)(=O)c2c(Sc3ccccc3)nc3ccccn23)n1

>  <Activity / %>
51

$$$$
>  <molecule>
CCCS(=O)(=O)c1nc2ccccn2c1S(=O)(=O)NC(=O)Nc1nc(OC)cc(OC)n1

>  <Activity / %>
76

$$$$

----------
- System: Alopecurus myosuroides
- assay-info: Herbicidal activity against Alopecurus myosuroides after 4 weeks by pre-emergence greenhouse test
- Format: functional
- Set-up: concentration or dose not given beside the values
Readings of Activity for the listed compounds

>  <compound>
COc1cc(OC)nc(NC(=O)NS(=O)(=O)c2c(S(=O)(=O)C(C)C)nc3ccccn23)n1

>  <assayed-system>
Alopecurus myosuroides

>  <Activity (%)>
88

$$$$
>  <compound>
COc1cc(OC)nc(NC(=O)NS(=O)(=O)c2c(S(=O)(=O)c3ccccc3)nc3ccccn23)n1

>  <assayed-system>
Alopecurus myosuroides

>  <Activity (%)>
0

$$$$
>  <compound>
COc1cc(OC)nc(NC(=O)NS(=O)(=O)c2c([S+]([O-])c3ccccc3)nc3ccccn23)n1 (configuration not stated)

>  <assayed-system>
Alopecurus myosuroides

>  <Activity (%)>
0

$$$$
>  <compound>
CCS(=O)(=O)c1nc2ccccn2c1S(=O)(=O)NC(=O)Nc1nc(OC)cc(OC)n1 [SULFOSULFURON]

>  <assayed-system>
Alopecurus myosuroides

>  <Activity (%)>
88

$$$$
>  <compound>
COc1cc(OC)nc(NC(=O)NS(=O)(=O)c2c([S+]([O-])C(C)C)nc3ccccn23)n1 (configuration not stated)

>  <assayed-system>
Alopecurus myosuroides

>  <Activity (%)>
0

$$$$
>  <compound>
COc1cc(OC)nc(NC(=O)NS(=O)(=O)c2c(Sc3ccccc3)nc3ccccn23)n1

>  <assayed-system>
Alopecurus myosuroides

>  <Activity (%)>
0

$$$$
>  <compound>
COc1cc(OC)nc(NC(=O)NS(=O)(=O)c2c(SC(C)C)nc3ccccn23)n1

>  <assayed-system>
Alopecurus myosuroides

>  <Activity (%)>
0

$$$$
>  <compound>
CCS(=O)(=O)c1nc2ccccn2c1S(=O)(=O)NC(=O)Nc1nc(C)cc(C)n1

>  <assayed-system>
Alopecurus myosuroides

>  <Activity (%)>
0

$$$$
>  <compound>
COc1cc(OC)nc(NC(=O)NS(=O)(=O)c2c(SC)nc3ccccn23)n1

>  <assayed-system>
Alopecurus myosuroides

>  <Activity (%)>
1

$$$$
>  <compound>
CC[S+]([O-])c1nc2ccccn2c1S(=O)(=O)NC(=O)Nc1nc(OC)cc(OC)n1 (configuration not stated)

>  <assayed-system>
Alopecurus myosuroides

>  <Activity (%)>
1

$$$$
>  <compound>
COc1cc(OC)nc(NC(=O)NS(=O)(=O)c2c([S+](C)[O-])nc3ccccn23)n1 (configuration not stated)

>  <assayed-system>
Alopecurus myosuroides

>  <Activity (%)>
0

$$$$
>  <compound>
CCSc1nc2ccccn2c1S(=O)(=O)NC(=O)Nc1nc(OC)cc(OC)n1

>  <assayed-system>
Alopecurus myosuroides

>  <Activity (%)>
51

$$$$
>  <compound>
CCCS(=O)(=O)c1nc2ccccn2c1S(=O)(=O)NC(=O)Nc1nc(OC)cc(OC)n1

>  <assayed-system>
Alopecurus myosuroides

>  <Activity (%)>
76

$$$$
>  <compound>
COc1cc(OC)nc(NC(=O)NS(=O)(=O)c2c(S(C)(=O)=O)nc3ccccn23)n1

>  <assayed-system>
Alopecurus myosuroides

>  <Activity (%)>
76

$$$$
>  <compound>
CCCSc1nc2ccccn2c1S(=O)(=O)NC(=O)Nc1nc(OC)cc(OC)n1

>  <assayed-system>
Alopecurus myosuroides

>  <Activity (%)>
1

$$$$
>  <compound>
CCC[S+]([O-])c1nc2ccccn2c1S(=O)(=O)NC(=O)Nc1nc(OC)cc(OC)n1 (configuration not stated)

>  <assayed-system>
Alopecurus myosuroides

>  <Activity (%)>
0

$$$$
>  <compound>
CCS(=O)(=O)c1nc2ccccn2c1S(=O)(=O)NC(=O)Nc1nc(Cl)cc(OC)n1

>  <assayed-system>
Alopecurus myosuroides

>  <Activity (%)>
1

$$$$

----------
- System: Stellaria media
- assay-info: Herbicidal activity against Stellaria media after 3 weeks by post-emergence greenhouse test
- Assay type: functional
- Parameters: concentration or dose not given beside the values
Reported Activity values are given for each entry in this list.

>  <molecule>
COc1cc(OC)nc(NC(=O)NS(=O)(=O)c2c([S+]([O-])c3ccccc3)nc3ccccn23)n1 (configuration not stated)

>  <assayed-system>
Stellaria media

>  <unit-tag>
%

>  <Activity>
1

$$$$
>  <molecule>
COc1cc(OC)nc(NC(=O)NS(=O)(=O)c2c(S(=O)(=O)C(C)C)nc3ccccn23)n1

>  <assayed-system>
Stellaria media

>  <unit-tag>
%

>  <Activity>
76

$$$$
>  <molecule>
CCS(=O)(=O)c1nc2ccccn2c1S(=O)(=O)NC(=O)Nc1nc(C)cc(C)n1

>  <assayed-system>
Stellaria media

>  <unit-tag>
%

>  <Activity>
1

$$$$
>  <molecule>
COc1cc(OC)nc(NC(=O)NS(=O)(=O)c2c(SC(C)C)nc3ccccn23)n1

>  <assayed-system>
Stellaria media

>  <unit-tag>
%

>  <Activity>
1

$$$$
>  <molecule>
CC[S+]([O-])c1nc2ccccn2c1S(=O)(=O)NC(=O)Nc1nc(OC)cc(OC)n1 (configuration not stated)

>  <assayed-system>
Stellaria media

>  <unit-tag>
%

>  <Activity>
1

$$$$
>  <molecule>
COc1cc(OC)nc(NC(=O)NS(=O)(=O)c2c(S(=O)(=O)c3ccccc3)nc3ccccn23)n1

>  <assayed-system>
Stellaria media

>  <unit-tag>
%

>  <Activity>
1

$$$$
>  <molecule>
CCCS(=O)(=O)c1nc2ccccn2c1S(=O)(=O)NC(=O)Nc1nc(OC)cc(OC)n1

>  <assayed-system>
Stellaria media

>  <unit-tag>
%

>  <Activity>
76

$$$$
>  <molecule>
COc1cc(OC)nc(NC(=O)NS(=O)(=O)c2c(Sc3ccccc3)nc3ccccn23)n1

>  <assayed-system>
Stellaria media

>  <unit-tag>
%

>  <Activity>
1

$$$$
>  <molecule>
CCS(=O)(=O)c1nc2ccccn2c1S(=O)(=O)NC(=O)Nc1nc(OC)cc(OC)n1

>  <assayed-system>
Stellaria media

>  <unit-tag>
%

>  <Activity>
88

$$$$
>  <molecule>
COc1cc(OC)nc(NC(=O)NS(=O)(=O)c2c(SC)nc3ccccn23)n1

>  <assayed-system>
Stellaria media

>  <unit-tag>
%

>  <Activity>
1

$$$$
>  <molecule>
CCC[S+]([O-])c1nc2ccccn2c1S(=O)(=O)NC(=O)Nc1nc(OC)cc(OC)n1 (configuration not stated)

>  <assayed-system>
Stellaria media

>  <unit-tag>
%

>  <Activity>
51

$$$$
>  <molecule>
COc1cc(OC)nc(NC(=O)NS(=O)(=O)c2c([S+]([O-])C(C)C)nc3ccccn23)n1 (configuration not stated)

>  <assayed-system>
Stellaria media

>  <unit-tag>
%

>  <Activity>
1

$$$$
>  <molecule>
CCSc1nc2ccccn2c1S(=O)(=O)NC(=O)Nc1nc(OC)cc(OC)n1

>  <assayed-system>
Stellaria media

>  <unit-tag>
%

>  <Activity>
1

$$$$
>  <molecule>
CCCSc1nc2ccccn2c1S(=O)(=O)NC(=O)Nc1nc(OC)cc(OC)n1

>  <assayed-system>
Stellaria media

>  <unit-tag>
%

>  <Activity>
1

$$$$
>  <molecule>
COc1cc(OC)nc(NC(=O)NS(=O)(=O)c2c(S(C)(=O)=O)nc3ccccn23)n1

>  <assayed-system>
Stellaria media

>  <unit-tag>
%

>  <Activity>
76

$$$$
>  <molecule>
CCS(=O)(=O)c1nc2ccccn2c1S(=O)(=O)NC(=O)Nc1nc(Cl)cc(OC)n1

>  <assayed-system>
Stellaria media

>  <unit-tag>
%

>  <Activity>
1

$$$$
>  <molecule>
COc1cc(OC)nc(NC(=O)NS(=O)(=O)c2c([S+](C)[O-])nc3ccccn23)n1 (configuration not stated)

>  <assayed-system>
Stellaria media

>  <unit-tag>
%

>  <Activity>
0

$$$$

These data points were gathered from ChEMBL document CHEMBL3046418.
